Target: MCL-1 (Homo sapiens, UniProt Q07820)
Sequence (Q07820 whole entry): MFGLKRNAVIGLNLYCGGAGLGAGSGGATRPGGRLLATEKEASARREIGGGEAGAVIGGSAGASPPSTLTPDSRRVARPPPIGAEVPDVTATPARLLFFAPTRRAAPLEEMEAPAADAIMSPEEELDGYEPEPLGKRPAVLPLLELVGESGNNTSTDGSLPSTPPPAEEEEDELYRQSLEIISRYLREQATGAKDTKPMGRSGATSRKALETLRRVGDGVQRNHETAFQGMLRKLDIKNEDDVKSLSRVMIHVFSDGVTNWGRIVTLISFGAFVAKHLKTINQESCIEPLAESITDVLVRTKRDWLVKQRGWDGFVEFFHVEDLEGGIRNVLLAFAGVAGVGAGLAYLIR
Experiment: Protein-protein interaction assay MCL-1/Noxa BH3 peptide (MCL-1 assay), TR-FRET
Format: binding
Settings: MBP-MCL-1 / Noxa BH3-derived peptide, median
Please assign Criterion not met whenever IC50 is at or above 100 nM, and Criterion met whenever it is below.

Some entries whose results are on file:
Cn1nc(COc2ccc(NS(C)(=O)=O)cc2)c2c1COCCCCn1c(C(=O)O)c(CCCOc3cccc4ccccc34)c3cccc-2c31 (single isomer, unassigned; enantiomer 2) [Example 323] :: Criterion not met
Cc1cc(OCCCc2c(C(=O)O)n3c4c(cccc24)-c2c(COc4ccccc4)nn(C)c2CN(C)CCC3)cc(C)c1Cl (racemic) [Example 1-84] :: Criterion not met
CN1CCCn2c(C(=O)O)c(CCCOc3cccc4ccccc34)c3cccc(c32)-c2c(CN3CCOCC3)nn(C)c2C1 (single isomer, unassigned; enantiomer 2) [Example 1-44] :: Criterion met
CC(=O)N(C)Cc1nn(C)c2c1-c1cccc3c(CCCOc4cccc5ccccc45)c(C(=O)O)n(c13)CCCCOC2 (racemic) :: Criterion met

Okay, next one:
*Q* Is it true that IC50 reported for CCc1nn(C)c2c1-c1cccc3c(CCCOc4cccc5cc(Cl)ccc45)c(C(=O)O)n(c13)CCCCOC2 (single isomer, unassigned; enantiomer 2) [Example 306] is less than 100 nM?
*A* Criterion not met
